pKi: −log10 of the molar value.
The listing below reports pKi for compounds tested on Muscarinic acetylcholine receptor M3 (Homo sapiens).
Sequence (P20309 whole entry): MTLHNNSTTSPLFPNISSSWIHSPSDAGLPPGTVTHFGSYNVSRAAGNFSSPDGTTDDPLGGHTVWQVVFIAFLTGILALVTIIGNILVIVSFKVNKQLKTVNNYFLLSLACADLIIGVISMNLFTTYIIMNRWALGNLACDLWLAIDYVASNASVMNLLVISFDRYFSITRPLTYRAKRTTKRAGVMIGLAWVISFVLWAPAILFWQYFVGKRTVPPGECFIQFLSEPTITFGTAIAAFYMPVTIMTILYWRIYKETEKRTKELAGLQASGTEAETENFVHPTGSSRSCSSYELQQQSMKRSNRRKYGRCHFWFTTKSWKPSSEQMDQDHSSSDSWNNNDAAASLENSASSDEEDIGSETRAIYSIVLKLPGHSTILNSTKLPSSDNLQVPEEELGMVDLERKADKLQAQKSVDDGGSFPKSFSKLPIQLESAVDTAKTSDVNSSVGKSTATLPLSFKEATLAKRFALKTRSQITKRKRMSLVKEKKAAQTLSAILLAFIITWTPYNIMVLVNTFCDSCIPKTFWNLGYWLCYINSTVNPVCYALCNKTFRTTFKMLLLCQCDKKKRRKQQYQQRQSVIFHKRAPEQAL

Request: Tell me the measured pKi of C[C@H]1O[C@@H]([C@H]2CCCN2C)C[S@+]1[O-] , please.
Result: < 4.00

Request: Please do the same for C[C@H]1O[C@@H]([C@H]2CCCN2C)C[S@@+]1[O-] as well.
Result: < 4.00

Request: Then what about the compound C[C@@H]1O[C@H]([C@H]2CCCN2C)C[S@@+]1[O-] ?
Result: < 4.00

Request: Another compound to check: C[N+](C)(C)CC#CCOC(=O)Nc1ccc(Cl)cc1
Result: 5.62

Request: Next up: C#CCOC(=O)C1=CCCN(C)C1 [ARECAIDINE PROPARGYL ESTER]
Result: 6.07

Request: Again, but for C[C@@H]1O[C@H]([C@@H]2CCCN2C)C[S@+]1[O-]
Result: < 4.00

Request: Next record, please: C[C@@H]1O[C@H]([C@H]2CCCN2C)C[S@+]1[O-]
Result: < 4.00

Request: Item: C[C@@H]1O[C@H]([C@@H]2CCC[N+]2(C)C)C[S@@+]1[O-]
Result: 4.47

Request: Now consider C[C@@H]1O[C@H]([C@H]2CCC[N+]2(C)C)C[S@+]1[O-] .
Result: < 4.00

Request: // next record C[C@@H]1O[C@H]([C@@H]2CCCN2C)C[S@@+]1[O-]
Result: < 4.00

Request: Now give it for C[C@H]1O[C@@H]([C@@H]2CCCN2C)C[S@@+]1[O-] too.
Result: < 4.00

###

Consider the following compounds; for each one, report its Activity.
- TARGET_OR_TEST_SYSTEM: Muscarinic acetylcholine receptor M3 (Cavia porcellus) (UniProt Q8VH26)
- Sequence (Q8VH26 1-587): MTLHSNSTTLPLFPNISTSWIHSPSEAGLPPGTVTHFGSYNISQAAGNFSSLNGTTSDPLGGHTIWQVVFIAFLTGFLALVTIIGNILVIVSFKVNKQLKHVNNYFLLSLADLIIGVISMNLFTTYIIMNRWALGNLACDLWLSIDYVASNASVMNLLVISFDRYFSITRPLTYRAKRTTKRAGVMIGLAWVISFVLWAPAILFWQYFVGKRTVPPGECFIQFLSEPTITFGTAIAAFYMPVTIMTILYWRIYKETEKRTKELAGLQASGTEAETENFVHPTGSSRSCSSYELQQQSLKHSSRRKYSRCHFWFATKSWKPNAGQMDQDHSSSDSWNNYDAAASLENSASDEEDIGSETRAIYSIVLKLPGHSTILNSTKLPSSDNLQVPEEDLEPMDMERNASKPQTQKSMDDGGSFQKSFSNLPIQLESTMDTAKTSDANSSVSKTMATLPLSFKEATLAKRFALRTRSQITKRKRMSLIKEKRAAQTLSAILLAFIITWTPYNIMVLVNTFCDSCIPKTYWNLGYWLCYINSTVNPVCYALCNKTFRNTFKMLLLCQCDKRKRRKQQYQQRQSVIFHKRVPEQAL
- ASSAY_DETAILS: Agonist potency at muscarinic M3 receptor in guinea pig ileum
- Format: functional, tissue-based
Could you respond with only the numeric value?

Request: So what's the measured Activity for this one? C[C@H]1O[C@@H]([C@@H]2CCC[N+]2(C)C)C[S@@+]1[O-] (stereo in doubt; (+)-7)
Result: 0

Request: Same again, this time with C[C@@H]1O[C@H]([C@@H]2CCCN2C)C[S@@+]1[O-]
Result: 0

Request: Would you mind doing C[C@H]1O[C@@H]([C@@H]2CCC[N+]2(C)C)C[S@+]1[O-] as well?
Result: 0

Request: Similarly, C[C@H]1O[C@@H]([C@@H]2CCC[N+]2(C)C)C[S@@+]1[O-] (stereo in doubt; (-)-8) ?
Result: 0

Request: Please do the same for C[C@@H]1O[C@H]([C@@H]2CCC[N+]2(C)C)C[S@+]1[O-] as well.
Result: 0

Request: Next up: C[C@@H]1O[C@H]([C@@H]2CCC[N+]2(C)C)C[S@@+]1[O-]
Result: 0.54

Request: For C[C@H]1O[C@@H]([C@@H]2CCC[N+]2(C)C)C[S@@+]1[O-] (stereo in doubt; (-)-6) then?
Result: 0

Request: Also check C[C@H]1O[C@@H]([C@@H]2CCCN2C)C[S@+]1[O-]
Result: 0

Request: Then this compound: C[C@@H]1O[C@H]([C@H]2CCC[N+]2(C)C)C[S@@+]1[O-]
Result: 1

Request: Ok, now C[C@@H]1O[C@H]([C@@H]2CCCN2C)C[S@+]1[O-]
Result: 0

Request: Proceed to C#CCOC(=O)C1=CCCN(C)C1 [ARECAIDINE PROPARGYL ESTER]
Result: 1

###

- TARGET_OR_TEST_SYSTEM: Muscarinic acetylcholine receptor M4 (Homo sapiens)
- Sequence (whole entry): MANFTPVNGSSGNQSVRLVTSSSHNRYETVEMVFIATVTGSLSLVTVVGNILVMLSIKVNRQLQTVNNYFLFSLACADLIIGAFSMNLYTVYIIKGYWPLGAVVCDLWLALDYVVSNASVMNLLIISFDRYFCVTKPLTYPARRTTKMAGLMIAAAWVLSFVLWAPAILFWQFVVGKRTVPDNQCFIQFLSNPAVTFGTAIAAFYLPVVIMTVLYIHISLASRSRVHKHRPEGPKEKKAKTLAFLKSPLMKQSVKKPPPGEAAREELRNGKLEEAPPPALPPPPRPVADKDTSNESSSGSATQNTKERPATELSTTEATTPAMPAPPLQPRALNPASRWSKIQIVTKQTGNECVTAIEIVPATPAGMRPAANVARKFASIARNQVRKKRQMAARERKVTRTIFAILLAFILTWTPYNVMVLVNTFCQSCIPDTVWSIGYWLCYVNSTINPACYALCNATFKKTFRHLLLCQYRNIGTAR
- ASSAY_DETAILS: Antagonist affinity at muscarinic M4 receptor in guinea pig lung strips
- Assay type: functional
- REPORTED_CONDITIONS: Cavia porcellus, target entry is the homologue from another species
MEASURED_QUANTITY: pKb

Request: Can you look up the measured pKb of C[C@H]1O[C@@H]([C@@H]2CCCN2C)C[S@+]1[O-] for me?
Result: < 5

Request: Entry to check: C[C@H]1O[C@@H]([C@@H]2CCC[N+]2(C)C)C[S@@+]1[O-] (stereo in doubt; (-)-8)
Result: < 5

Request: Now consider C[C@H]1O[C@@H]([C@@H]2CCC[N+]2(C)C)C[S@@+]1[O-] (stereo in doubt; (-)-6) and answer again.
Result: < 5

Request: Same again, this time with C[C@H]1O[C@@H]([C@@H]2CCC[N+]2(C)C)C[S@@+]1[O-] (stereo in doubt; (+)-7)
Result: < 5

Request: Now the same for C[C@@H]1O[C@H]([C@H]2CCC[N+]2(C)C)C[S@@+]1[O-]
Result: < 5

Request: Can you check C[C@H]1O[C@@H]([C@@H]2CCC[N+]2(C)C)C[S@+]1[O-] next?
Result: < 5

Request: // same read-out, input: C[C@@H]1O[C@H]([C@@H]2CCC[N+]2(C)C)C[S@@+]1[O-]
Result: < 5

Request: And what about the compound C[C@@H]1O[C@H]([C@@H]2CCC[N+]2(C)C)C[S@+]1[O-] ?
Result: < 5

Request: Can you check C[C@@H]1O[C@H]([C@@H]2CCCN2C)C[S@@+]1[O-] next?
Result: < 5

Request: Moving on to C[C@@H]1O[C@H]([C@@H]2CCCN2C)C[S@+]1[O-]
Result: < 5

###

- TARGET_OR_TEST_SYSTEM: Muscarinic acetylcholine receptor M2 (Homo sapiens, UniProt P08172)
- Sequence (P08172 whole entry): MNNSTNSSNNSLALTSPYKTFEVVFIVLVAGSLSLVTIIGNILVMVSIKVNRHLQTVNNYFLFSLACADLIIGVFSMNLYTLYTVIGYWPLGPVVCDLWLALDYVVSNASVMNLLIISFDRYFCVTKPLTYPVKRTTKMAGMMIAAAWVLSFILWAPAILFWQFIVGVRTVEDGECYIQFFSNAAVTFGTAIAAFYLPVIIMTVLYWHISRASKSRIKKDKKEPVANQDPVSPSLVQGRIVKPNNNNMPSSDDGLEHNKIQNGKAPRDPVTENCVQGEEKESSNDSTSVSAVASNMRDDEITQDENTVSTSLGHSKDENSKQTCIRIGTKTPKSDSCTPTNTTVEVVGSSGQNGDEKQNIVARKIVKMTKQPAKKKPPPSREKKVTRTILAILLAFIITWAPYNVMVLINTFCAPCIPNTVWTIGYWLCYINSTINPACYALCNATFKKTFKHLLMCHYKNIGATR
Exercise: state measured pKi for each of the compounds provided.
Notebook: values listed as pKi are -log10 of the concentration (mol/L).

Request: Can you share its pKi? I mean this compound: C[C@H]1O[C@@H]([C@@H]2CCC[N+]2(C)C)C[S@@+]1[O-].[I-] (stereo in doubt; (+)-7)
Result: 4.09

Request: Next entry: C[C@H]1O[C@@H]([C@@H]2CCCN2C)C[S@+]1[O-]
Result: 4.06

Request: Then this compound: C[C@@H]1O[C@H]([C@H]2CCC[N+]2(C)C)C[S@@+]1[O-]
Result: 5.03

Request: For C[C@H]1O[C@@H]([C@@H]2CCC[N+]2(C)C)C[S@+]1[O-] then?
Result: 4.11

###

- TARGET_OR_TEST_SYSTEM: Muscarinic acetylcholine receptor M2 (Homo sapiens, UniProt P08172)
- Sequence (P08172 whole entry): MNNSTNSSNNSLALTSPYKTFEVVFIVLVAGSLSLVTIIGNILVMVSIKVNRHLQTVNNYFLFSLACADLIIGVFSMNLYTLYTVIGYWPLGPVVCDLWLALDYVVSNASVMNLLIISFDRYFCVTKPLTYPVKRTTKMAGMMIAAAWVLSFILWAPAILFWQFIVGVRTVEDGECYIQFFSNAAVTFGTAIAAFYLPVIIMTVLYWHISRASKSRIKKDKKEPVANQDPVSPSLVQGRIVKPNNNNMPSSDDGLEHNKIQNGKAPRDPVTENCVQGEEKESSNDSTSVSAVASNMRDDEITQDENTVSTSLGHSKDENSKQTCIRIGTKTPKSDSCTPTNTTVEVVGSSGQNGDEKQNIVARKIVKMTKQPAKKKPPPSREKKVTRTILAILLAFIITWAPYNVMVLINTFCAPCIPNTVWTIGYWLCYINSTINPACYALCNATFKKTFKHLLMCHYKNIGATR
Output Met for records whose Ki is lower than 20 µM, Not met for records at or above 20 µM.

Request: Take the molecule C[C@H]1O[C@@H]([C@H]2CCCN2C)C[S@@+]1[O-] and say whether its Ki is less than 20 µM.
Result: Not met

Request: Queued: C[C@H]1O[C@@H]([C@H]2CCCN2C)C[S@+]1[O-]
Result: Not met

Request: Next record, please: C#CCOC(=O)C1=CCCN(C)C1 [ARECAIDINE PROPARGYL ESTER]
Result: Met

Request: Continue with C[C@@H]1O[C@H]([C@@H]2CCC[N+]2(C)C)C[S@@+]1[O-]
Result: Met

Request: Thanks! And C[C@@H]1O[C@H]([C@@H]2CCCN2C)C[S@+]1[O-] ?
Result: Not met

Request: Same read-out for C[C@H]1O[C@@H]([C@@H]2CCC[N+]2(C)C)C[S@@+]1[O-].[I-] (stereo in doubt; (-)-8) ?
Result: Not met

Request: Also C[C@H]1O[C@@H]([C@@H]2CCC[N+]2(C)C)C[S@@+]1[O-] (stereo in doubt; (-)-6) , if possible.
Result: Not met

Request: What do we get for C[C@@H]1O[C@H]([C@H]2CCCN2C)C[S@+]1[O-] ?
Result: Not met

Request: Next: C[C@@H]1O[C@H]([C@@H]2CCC[N+]2(C)C)C[S@+]1[O-]
Result: Not met

Request: How about this molecule: C[N+](C)(C)CC#CCOC(=O)Nc1ccc(Cl)cc1
Result: Met
